Reported optical density by item:
Biological target: T1, Goat anti-Human Kappa
T1 construct: Positive control of the ELISA; also called biotinylated goat anti-human kappa light chain
Test: ELISA, positive control; note: test concentration or dose not given here

# binder, optical density [OD]
records = [
    ("373_E12 (antibody, V domains shown) VH: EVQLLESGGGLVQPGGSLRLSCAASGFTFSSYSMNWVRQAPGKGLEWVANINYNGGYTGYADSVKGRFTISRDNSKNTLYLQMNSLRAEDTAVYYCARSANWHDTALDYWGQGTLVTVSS VL: DIQMTQSPSSLSASVGDRVTITCRASQSILSYVNWYQQKPGKAPKLVIYAATSRASGVPSRFSGSGSGTDFTLTISSLQPEDFATYYCQQSYDTPLTFGGGTKVEIK", 3.12),
    ("369_H05 (antibody, V domains shown) VH: EVQLLESGGGLVQPGGSLRLSCAASGFTFSSYGMNWVRQAPGKGLEWVANINYNGGYTGYADSVKGRFTISRDNSKNTLYLQMNSLRAEDTAVYYCARSANWHDTALDYWGQGTLVTVSS VL: DIQMTQSPSSLSASVGDRVTITCRASQSIVSYVNWYQQKPGKAPKLLIYAATSRASGVPSRFSGSGSGTDFTLTISSLQPEDFATYYCQQSYSNPLTFGGGTKVEIK", 3.54),
    ("374_B12 (antibody, V domains shown) VH: EVQLLESGGGLVQPGGSLRLSCAASGFTFDSYSMNWVRQAPGKGLEWVAGINYNGGYTGYADSVKGRFTISRDNSKNTLYLQMNSLRAEDTAVYYCARSANWHDTHLDYWGQGTLVTVSS VL: DIQMTQSPSSLSASVGDRVTITCRASQSISSYLNWYQQKPGKAPKLVIYAATSRASGVPSRFSGSGSGTDFTLTISSLQPEDFATYYCQQSYDNPLTFGGGTKVEIK", 3.05),
]
